# Test system: Human immunodeficiency virus 1
# methodDescription: Antiviral activity against HIV-1 LAI infected in human CEMx174-LTR-GFP CG8 cells assessed as inhibition of viral replication after 5 days
# Format: functional, organism-based
# assaySetup: Human immunodeficiency virus 1, LAI, 120 h
quantityName: EC50 (µM)

(a) COc1ccc(-c2nc(CCc3cccc(Cl)c3)nc3ccsc23)cn1
(b) c1ccc(-c2cc(CNc3nncc(-c4cccc5ccccc45)n3)n[nH]2)cc1
(c) COc1ccc(-c2nc(C[S+]([O-])c3cccc(Cl)c3)nc3ccsc23)cn1 (configuration not stated)
For the compounds shown above, give the order from largest EC50 to smallest. Reply: labels, ordered per the request. a, c, b
(a: 1.6 µM, c: 0.532 µM, b: 0.27 µM)

(I) O=S(=O)(Cc1nc(-c2cccs2)c2sccc2n1)c1cccc(Cl)c1
(II) COc1ccc(-c2nc(CSc3cc(Cl)ccc3Cl)nc3ccsc23)cn1
Dear colleague, could you let me know whether I or II has the lower recorded EC50? Thanks. Bench note: the answer is the label of the chosen record. I
(I: 0.14 µM, II: 0.728 µM)

(A) COc1ccc(-c2nc(C(F)S(=O)(=O)c3cccc(Cl)c3)nc3ccsc23)cn1 (configuration not stated)
(B) COc1ccc(-c2nc(S(=O)(=O)c3cccc(Cl)c3)nc3ccsc23)cn1
Could you point out whether the larger EC50 belongs to A or to B ? Identify your selection by its label. B

(1) COc1ccc(-c2nc(C(C)S(=O)(=O)c3cccc(Cl)c3)nc3ccsc23)cn1 (configuration not stated)
(2) COc1ccc(-c2nc(CSc3cccc(Br)c3)nc3ccsc23)cn1
Given the listed items, does 1 or 2 have the lesser reported EC50? # respond with the chosen item's label 1
(1: 0.084 µM, 2: 0.158 µM)

###

# targetDesc: Cytochrome P450 2C9 (Homo sapiens, UniProt P11712)
# Sequence (P11712 whole entry): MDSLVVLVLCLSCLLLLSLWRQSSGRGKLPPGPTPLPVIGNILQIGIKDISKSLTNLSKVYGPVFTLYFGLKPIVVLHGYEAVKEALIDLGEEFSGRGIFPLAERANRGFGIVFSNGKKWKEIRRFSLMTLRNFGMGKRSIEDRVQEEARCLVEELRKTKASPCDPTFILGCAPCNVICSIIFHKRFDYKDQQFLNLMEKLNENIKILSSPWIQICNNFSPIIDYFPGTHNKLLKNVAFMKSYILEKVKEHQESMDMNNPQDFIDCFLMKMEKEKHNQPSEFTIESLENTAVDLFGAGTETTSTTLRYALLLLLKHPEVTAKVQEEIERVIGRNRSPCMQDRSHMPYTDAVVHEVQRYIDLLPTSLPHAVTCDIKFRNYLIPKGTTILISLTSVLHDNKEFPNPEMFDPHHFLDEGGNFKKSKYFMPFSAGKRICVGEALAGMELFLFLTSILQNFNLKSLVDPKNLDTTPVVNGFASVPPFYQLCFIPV
# methodDescription: Inhibition of recombinant CYP2C9 (unknown origin) after 10 mins by LC-MS/MS analysis
quantityName: IC50 (µM)
Write the answer as a number in µM, unit excluded.

Consider the compound `COc1ccc(-c2nc(CS(=O)(=O)c3cccc(Cl)c3)nc3ccsc23)cn1` and give its measured IC50. 5.25

###

# targetDesc: Cytochrome P450 3A4 (Homo sapiens, UniProt P08684)
# Sequence (P08684 whole entry): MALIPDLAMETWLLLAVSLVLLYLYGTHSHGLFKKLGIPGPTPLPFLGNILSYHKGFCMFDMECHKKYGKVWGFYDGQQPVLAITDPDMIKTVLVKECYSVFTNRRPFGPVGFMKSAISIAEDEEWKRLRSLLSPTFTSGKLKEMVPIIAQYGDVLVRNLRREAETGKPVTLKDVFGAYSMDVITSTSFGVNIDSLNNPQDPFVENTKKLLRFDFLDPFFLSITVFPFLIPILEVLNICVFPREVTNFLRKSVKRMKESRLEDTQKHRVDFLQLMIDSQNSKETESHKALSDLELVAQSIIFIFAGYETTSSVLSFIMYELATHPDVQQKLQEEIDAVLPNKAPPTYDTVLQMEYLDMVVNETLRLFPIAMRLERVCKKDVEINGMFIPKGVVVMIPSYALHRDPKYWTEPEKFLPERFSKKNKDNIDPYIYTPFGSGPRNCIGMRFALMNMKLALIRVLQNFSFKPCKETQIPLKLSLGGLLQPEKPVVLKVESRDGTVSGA
# methodDescription: Inhibition of recombinant CYP3A4 (unknown origin) after 3 mins by LC-MS/MS analysis
quantityName: IC50 (µM)
Return type: number; implicit unit µM.

Reported IC50 for Cytochrome P450 3A4 (Homo sapiens, UniProt P08684), given `COc1ccc(-c2nc(CS(=O)(=O)c3cccc(Cl)c3)nc3ccsc23)cn1` ? 6.71

###

# Tested on: Human immunodeficiency virus 1
# methodDescription: Antiviral activity against HIV-1 LAI infected in human CEMx174-LTR-GFP CG8 cells assessed as inhibition of viral replication after 5 days
# Format: functional, organism-based
# assaySetup: Human immunodeficiency virus 1, LAI, 120 h
pEC50: −log10 of the molar value.
quantityName: pEC50

Illustrative cases are given below, each with its answer.
COc1ccc(-c2nc(CSc3cccc(Cl)c3)nc3ccsc23)cn1 = 7.85
O=c1ccc(-c2nc(CS(=O)(=O)c3cccc(Cl)c3)nc3ccsc23)c[nH]1 = 6.04
CCC1=C(C(=O)OCC2CCCCC2)C(c2cccc(O)c2)NC(=O)N1 (stereo unspecified) = 6.28

(P) O=S(=O)(Cc1nc(-c2ccnc(Cl)c2)c2sccc2n1)c1cccc(Cl)c1
(Q) O=S(=O)(Cc1nc(N2CCOCC2)c2sccc2n1)c1cccc(Cl)c1
Endpoint returns whichever of P and Q has the numerically higher pEC50. // output: label of the selected item P

(A) COc1ccc(-c2nc(CCS(=O)(=O)c3cccc(Cl)c3)nc3ccsc23)cn1
(B) COc1ccc(-c2nc(CSc3ccc(C(F)(F)F)cn3)nc3ccsc23)cn1
(C) COc1ccc(-c2nc(CC(=O)c3cccc(Cl)c3)nc3ccsc23)cn1
Let's sort these by pEC50, smallest first. Go ahead? Give the labels in the order specified. B, A, C

(1) COc1ccc(-c2nc(C3(S(=O)(=O)c4cccc(Cl)c4)CC3)nc3ccsc23)cn1
(2) COc1ccc(Nc2nc(CS(=O)(=O)c3cccc(Cl)c3)nc3ccsc23)cc1
Higher pEC50 between 1 and 2 ? Answer with the label corresponding to your selection. 1
(1: 7.16, 2: 5.49)

(1) O=S(=O)(Cc1nc(-c2cccnc2)c2sccc2n1)c1cccc(Cl)c1
(2) COc1ccc(-c2nc(/C=C\c3cccc(Cl)c3)nc3ccsc23)cn1
Between 1 and 2 , which one has the lower reported pEC50 value? Selection: enter the item's label. 2

(1) COc1ccc(-c2nc(COc3cccc(Cl)c3)nc3ccsc23)cn1
(2) O=S(=O)(Cc1nc(-c2ccoc2)c2sccc2n1)c1cccc(Cl)c1
Identify the entry with the smaller pEC50: 1 or 2 . Kindly give the label for the entry you pick. 2
(2: 6.11, 1: 6.42)

(I) COc1ccc(-c2nc(C(F)(F)S(=O)(=O)c3cccc(Cl)c3)nc3ccsc23)cn1
(II) COc1ccc(-c2nc(CSCc3cccc(Cl)c3)nc3ccsc23)cn1
(III) COc1ccc(-c2nc(CNc3cccc(Cl)c3)nc3ccsc23)cn1
(IV) COc1ccc(-c2nc(C(C)(C)S(=O)(=O)c3cccc(Cl)c3)nc3ccsc23)cn1
Sequence the entries by pEC50, beginning with the highest number. List labels; respect the requested ordering. I, III, IV, II
(I: 6.63, III: 6.17, IV: 5.64, II: 4.64)

(I) COc1ccc(-c2nc(CS(=O)(=O)c3cccc(Cl)c3)nc3ccsc23)cn1
(II) COc1ccc(-c2nc(CSc3cc(C)cc(C)c3)nc3ccsc23)cn1
(III) COc1ccc(-c2nc(CSc3ccc(F)cc3F)nc3ccsc23)cn1
Arrange the 3 compounds from largest to smallest pEC50. Reply: labels, ordered per the request. I, II, III
(I: 7.60, II: 6.11, III: 5.30)

Reference source: ChEMBL document CHEMBL3352046
